Source listed as patent US20050080113A1.

melting point by entry:

[
  {
    "molecule": "Cc1cccc(-c2nc(-c3ccccc3)sc2-c2ccnc(C)c2)c1 [H 14-6]",
    "melting point": "79 to 80 °C"
  },
  {
    "molecule": "CCC(=O)Nc1cc(-c2sc(C(C)(F)F)nc2-c2cccc(Cl)c2)ccn1 [H 102-4]",
    "melting point": "141 to 142 °C"
  },
  {
    "molecule": "CCc1nc(-c2cccc(Cl)c2)c(-c2ccnc(N[C@@H](C)c3ccccc3)c2)s1.Cl",
    "melting point": "165 to 166 °C"
  },
  {
    "molecule": "Nc1nc(-c2cccc(Cl)c2)c(-c2ccnc(N3CCCCC3)c2)s1 [H 35-1]",
    "melting point": "206 to 208 °C"
  },
  {
    "molecule": "CC(=O)Nc1cc(-c2sc(C(C)O)nc2-c2cccc(Cl)c2)ccn1 (stereo not drawn) [H 111-2]",
    "melting point": "142 to 145 °C"
  }
]

### Prompt Request the reported melting point associated with COc1ccc(C(=O)Nc2nc(-c3cc(C)cc(C)c3)c(-c3ccnc(C)c3)s2)cn1 [H 48-3]
### Response 242 to 244 °C

### Prompt Request the reported melting point associated with CC(C)(C)OC(=O)N1CCC(c2nc(-c3cccc(Cl)c3)c(-c3ccnc(N)c3)s2)CC1 [H 80]
### Response 143 to 145 °C

### Prompt Request the reported melting point associated with CSCCc1nc(-c2cccc(Cl)c2)c(-c2ccnc(N)c2)s1 [H 100-1]
### Response 96 to 97 °C

### Prompt Request the reported melting point associated with Cc1cccc(-c2nc(-c3ccc(S(C)(=O)=O)cc3)sc2-c2ccnc(NC(=O)c3cccs3)c2)c1 [D 21-3]
### Response 199 to 201 °C
